Attribution: patent US11034692B1

target: HPK1; assay: HPK1 Lantha Binding Assay ("Lanth"); details: Table B1-2, read-out: HPK1 Ki, L = Lanth
reported endpoint: pKi
Bear in mind: pKi is minus log10 of a mol/L concentration; give just that figure.

Solved entries:
{"molecule": "COCc1cccc(C)c1-c1cc2cc(NC(=O)[C@@H]3C[C@H]3c3cnn(C)c3)ncc2c(N)n1 [Compound 428]", "pKi": 8.10}
{"molecule": "Cc1cccc(F)c1-c1cc2cc(NC(=O)[C@@H]3[C@@H](C)[C@H]3c3cnn(C)c3)ncc2c(N)n1 [Compound 354]", "pKi": 10.08}

Next molecule, please.
Query block: Recorded pKi for Cc1cccc(F)c1-c1cc2cc(NC(=O)[C@H]3[C@H](C)[C@@H]3c3cnn(C)c3)ncc2c(N)n1 [Compound 357] , please?
Result block: 8.57

====

biological target: HPK1-FL (HPK full length, T165E S171E) (Homo sapiens (Human), UniProt Q92918, S171E/T165E); assay: HPK1-FL HTRF Enzymatic Assay ("HTRF"); assay type: biochemical; conditions: Table B2, read-out: HPK1 Ki (nM), H = HTRF
Sequence (Q92918 whole entry T165E/S171E): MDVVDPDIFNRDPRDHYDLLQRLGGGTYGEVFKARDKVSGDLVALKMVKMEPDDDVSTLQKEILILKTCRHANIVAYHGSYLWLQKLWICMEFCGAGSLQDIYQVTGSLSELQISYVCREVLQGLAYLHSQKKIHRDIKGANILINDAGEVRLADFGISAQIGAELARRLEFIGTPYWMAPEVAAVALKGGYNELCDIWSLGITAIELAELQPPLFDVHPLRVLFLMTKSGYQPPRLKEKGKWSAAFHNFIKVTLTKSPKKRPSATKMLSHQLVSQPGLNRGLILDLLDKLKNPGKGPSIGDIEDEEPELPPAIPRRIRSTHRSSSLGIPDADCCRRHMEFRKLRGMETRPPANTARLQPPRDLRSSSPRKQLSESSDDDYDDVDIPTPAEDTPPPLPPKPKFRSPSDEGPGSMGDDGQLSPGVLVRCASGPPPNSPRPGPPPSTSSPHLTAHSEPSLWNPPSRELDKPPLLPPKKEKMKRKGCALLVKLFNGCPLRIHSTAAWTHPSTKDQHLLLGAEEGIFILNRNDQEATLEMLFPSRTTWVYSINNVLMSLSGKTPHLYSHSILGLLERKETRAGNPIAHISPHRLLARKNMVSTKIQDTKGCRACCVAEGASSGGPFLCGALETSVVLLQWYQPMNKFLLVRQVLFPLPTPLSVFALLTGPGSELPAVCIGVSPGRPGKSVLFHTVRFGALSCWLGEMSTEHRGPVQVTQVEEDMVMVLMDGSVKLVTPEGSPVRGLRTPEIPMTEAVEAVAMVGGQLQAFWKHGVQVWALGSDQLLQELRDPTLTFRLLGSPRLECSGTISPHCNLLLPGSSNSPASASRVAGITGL
reported endpoint: Ki (nM)
A number alone suffices; assume nM.

Query block: What Ki appears in the records for this compound with HPK1-FL (HPK full length, T165E S171E) (Homo sapiens (Human), UniProt Q92918, S171E/T165E)? `Cc1ccncc1-c1cc2cc(Nc3cc4n(n3)CC(=O)N(C)CC4)ncc2c(N)n1`
Result block: 0.59

====

Listing of recorded pKi by entry.
biological target: HPK1; test: HPK1 Lantha Binding Assay ("Lanth"); details: Table B1-2, read-out: HPK1 Ki, L = Lanth
pKi is defined as minus the log10 of a concentration measured in mol/L.

Query block: What value of pKi has been recorded for this entry: Cc1cc(C2=N[C@@H](C(C)C)CO2)ncc1-c1cc2cc(NC(=O)[C@H]3C[C@@H]3c3cnn(C)c3)ncc2c(N)n1 (stereo in doubt)
Result block: 8.74

Query block: So what does the record say about pKi for `CC1=CN(C)C(=O)Cc2nc(Nc3cc4cc(-c5cnccc5C)nc(N)c4cn3)ccc21` ?
Result block: 8.85

Query block: For the compound shown here, `Cc1ccncc1-c1cc2cc(Nc3ccc(CC#N)cn3)ncc2c(N)n1` , give the reported pKi.
Result block: 10.48

====

molecular target: HPK1 (Homo sapiens, UniProt Q92918); assay: HPK1 Lantha Binding Assay ("Lanth"); conditions: Table B1-1, read-out: HPK1 Ki (μM) (Lanth)
Sequence (Q92918 whole entry, looked up): as the sequence (Q92918 whole entry T165E/S171E) above, with E165T, E171S counted along it
reported endpoint: Ki (nM)
Quick reminder: number only, in nM, skip the unit.

A selection of reference data follows.
{"compound": "Cc1ccc(O)cc1-c1cc2cc(NC(=O)[C@H]3C[C@@H]3c3cnn(C)c3)ncc2c(N)n1 (racemic)", "tested target": "HPK1 (Homo sapiens, UniProt Q92918)", "Ki / nM": 0.147}
{"compound": "COc1cc(-c2cc3cc(NC(=O)[C@@H]4C[C@@H]4F)ncc3c(N)n2)c(C)cn1 (racemic)", "tested target": "HPK1 (Homo sapiens, UniProt Q92918)", "Ki / nM": 6.4}
{"compound": "CNC(=O)c1cc(C)c(-c2cc3cc(NC(=O)[C@H]4C[C@@H]4c4cnn(C)c4)ncc3c(N)n2)cn1 (racemic)", "tested target": "HPK1 (Homo sapiens, UniProt Q92918)", "Ki / nM": 2.44}
{"compound": "CC(C)c1ccncc1-c1cc2cc(NC(=O)[C@H]3C[C@@H]3C#N)ncc2c(N)n1 (racemic)", "tested target": "HPK1 (Homo sapiens, UniProt Q92918)", "Ki / nM": 5.9}
{"compound": "Cc1ccncc1-c1nc(N)c2cnc(NC(=O)[C@H]3C[C@@H]3CC#N)cc2c1Br (racemic)", "tested target": "HPK1 (Homo sapiens, UniProt Q92918)", "Ki / nM": 0.258}
{"compound": "Cc1ccncc1-c1nc(N)c2cnc(NC(=O)[C@@H]3C[C@H]3CC#N)cc2c1C (racemic)", "tested target": "HPK1 (Homo sapiens, UniProt Q92918)", "Ki / nM": 0.0881}

Here is the next item to consider.
Query block: What is its Ki for HPK1 (Homo sapiens, UniProt Q92918)? Entry: Cc1ccncc1-c1cc2cc(Nc3cnn(C(C)CO)c3)ncc2c(N)n1 (racemic)
Result block: 0.957

====

biological target: HPK1; assay: HPK1 Lantha Binding Assay ("Lanth"); conditions: Table B1-1, read-out: HPK1 Ki (μM) (Lanth)
reported endpoint: Ki (nM)
The figure you give is taken to be in nM; do not add the unit.

Use the examples below as a reference point.
{"compound": "CCc1c(-c2cnccc2C)nc(N)c2cnc(NC(=O)[C@@H]3C[C@H]3CC#N)cc12 (stereo in doubt) [Compound 271]", "units": "nM", "Ki": 0.768}
{"compound": "Cc1ccncc1-c1cc2cc(Nc3cnn(C(C)(C)CO)c3)ncc2c(N)n1 [Compound 266]", "units": "nM", "Ki": 0.118}
{"compound": "CC(=O)Nc1cc2c(F)c(-c3cnccc3C)nc(N)c2cn1 [Compound 156]", "units": "nM", "Ki": 21}
{"compound": "N#C[C@@H]1C[C@H]1C(=O)Nc1cc2cc(-c3cnccc3-c3cc[nH]n3)nc(N)c2cn1 [Compound 243]", "units": "nM", "Ki": 1.37}
{"compound": "NCCOCCn1cc([C@@H]2C[C@H]2C(=O)Nc2cc3cc(-c4c(Cl)cccc4Cl)nc(N)c3cn2)cn1 [Compound 296]", "units": "nM", "Ki": 0.026}

Query block: Quick one: Ki of Cc1ccncc1-c1nc(N)c2cnc(NC(=O)[C@@H]3C[C@H]3CC#N)cc2c1C1CC1 [Compound 316] ?
Result block: 0.522

Query block: So what does the record say about Ki for Cc1ccc(C(=O)N(C)C)cc1-c1cc2cc(NC(=O)[C@H]3C[C@@H]3c3cnn(C)c3)ncc2c(N)n1 [Compound 290] ?
Result block: 3.36

====

molecular target: UniProt:Q92918; experiment: HPK1 Lantha Binding Assay ("Lanth"); conditions: Table B1-1, read-out: HPK1 Ki (μM) (Lanth)
Threshold check on Ki: strictly below 5 nM is T; on or above 5 nM is F.

{"compound": "CC(=O)N1CCC([C@@H]2C[C@H]2C(=O)Nc2cc3cc(-c4cnccc4C)nc(N)c3cn2)CC1 (racemic) [Compound 166]", "tested target": "UniProt:Q92918", "class label": "T"}
{"compound": "Cc1ccncc1-c1cc2cc(NC(=O)C(C)C#N)ncc2c(N)n1 (racemic) [Compound 38]", "tested target": "UniProt:Q92918", "class label": "F"}

Query block: A record lists COCCN1CC[C@]2(C[C@H]2C(=O)Nc2cc3cc(-c4cnccc4C)nc(N)c3cn2)C1 (racemic) [Compound 127] . Is its Ki below 5 nM?
Result block: F

====

Each entry below carries its reported Ki.
molecular target: HPK1; test: HPK1 Lantha Binding Assay ("Lanth"); settings: Table B1-1, read-out: HPK1 Ki (μM) (Lanth)
Express it in nM; write the number only.

# example entries with known answers
{"molecule": "CCc1ccncc1-c1cc2cc(Nc3cccc(CO)n3)ncc2c(N)n1 [Compound 83]", "tested target": "HPK1", "Ki, nM": 0.3}
{"molecule": "Cc1ccc(O)cc1-c1cc2cc(NC(=O)[C@@H]3C[C@H]3c3cnn(C)c3)ncc2c(N)n1 [Compound 287]", "tested target": "HPK1", "Ki, nM": 0.078}

Then there is this molecule:
Query block: Looking for the measured Ki of CCc1ccncc1-c1cc2cc(NC(=O)C3CCC3)ncc2c(N)n1 [Compound 20] , can you help?
Result block: 3.22

====

target: HPK1 (Homo sapiens, UniProt Q92918); assay: HPK1 Lantha Binding Assay ("Lanth"); details: Table B1-1, read-out: HPK1 Ki (μM) (Lanth)
reported endpoint: Ki (nM)
Numbers only here, please. The scale is nM.

{"molecule": "Cc1ccncc1-c1cc2cc(NC(=O)[C@@H]3C[C@H]3c3cccnc3)ncc2c(N)n1 (racemic)", "units": "nM", "recorded value": 0.31}

Query block: # input molecule: `Cc1ccncc1-c1cc2cc(Nc3cc(C)n(CCO)n3)ncc2c(N)n1` ; wanted: its Ki
Result block: 0.439

Query block: Report Ki for CCS(=O)(=O)n1cc([C@H]2C[C@@H]2C(=O)Nc2cc3cc(-c4cnccc4C)nc(N)c3cn2)cn1 (racemic) please.
Result block: 0.02

====

biological target: HPK1; assay: HPK1 Lantha Binding Assay ("Lanth"); conditions: Table B1-1, read-out: HPK1 Ki (μM) (Lanth)
Consider the following compounds and their measured Ki readings.

Query block: Quick one: Ki of `CCc1ccncc1-c1cc2cc(NC(=O)c3cc[nH]n3)ncc2c(N)n1` ?
Result block: 10 nM

Query block: Look at this compound and give its reported Ki. `Nc1nc(N2CCOC2=O)cc2cc(NC(=O)C3CC3)ncc12`
Result block: 98 nM

Query block: Quick one: Ki for `Cn1cc(-c2cc3cc(NC(=O)C4CC4)ncc3c(N)n2)cn1` ?
Result block: 1.08 nM

Query block: Consider the compound `CCc1ccncc1-c1cc2cc(NC(=O)C3=CC3)ncc2c(N)n1` and give its measured Ki.
Result block: 545 nM

Query block: Name the recorded Ki for `CNC(=O)c1cc(Nc2cc3cc(-c4cnccc4C)nc(N)c3cn2)nn1C` .
Result block: 0.021 nM

Query block: // Ki lookup, key: `CCc1ccncc1-c1cc2cc(NC(=O)CC#N)ncc2c(N)n1`
Result block: 26.4 nM

Query block: Please look up its Ki: `Cc1ccncc1-c1cc2cc(NC(=O)[C@H]3C[C@@H]3C#N)ncc2c(N)n1`
Result block: 0.4 nM

Query block: State the recorded Ki for this entry: `Cc1ccncc1-c1cc2cc(Nc3cnn([C@@H]4CCN(C)C4=O)c3)ncc2c(N)n1`
Result block: 0.433 nM
